Consider the following molecules; for each one, report its Serum levels.
assay: Other analytes: transdermal collection levels versus serum levels; conditions: first group of subjects (no condition given)

Solved entries (count: 3):
CCO : 10 to 900 µg/mL
CN[C@@H](C)[C@@H](O)c1ccccc1 [Pseudoephedrine, reference compound] : 1 to 8 µg/mL
CC(=O)[C@H]1CC[C@H]2[C@@H]3CCC4=CC(=O)CC[C@]4(C)[C@H]3CC[C@]12C : 0.001 to 0.012 µg/mL

Proceeding to the next molecule to report its Serum levels.
-- ask Please give measured Serum levels of the following entry: Cn1c(=O)c2c(ncn2C)n(C)c1=O
-- reply 1000 to 5000 µg/mL

* * *

experiment: Other analytes: transdermal collection levels versus serum levels; details: first group of subjects (no condition given)
measured-attribute: Transdermal collection levels

Cn1c(=O)c2c(ncn2C)n(C)c1=O : 0.2 to 0.8 mg/mL

Report Transdermal collection levels for each item below.
1. CN[C@@H](C)[C@@H](O)c1ccccc1 [Pseudoephedrine, reference compound]
2. CCO
3. CC(=O)[C@H]1CC[C@H]2[C@@H]3CCC4=CC(=O)CC[C@]4(C)[C@H]3CC[C@]12C

-- reply
["0.0002 to 0.0008 mg/mL", "0.02 to 0.08 mg/mL", "2e-07 to 1.1e-06 mg/mL"]
